# Tested on: K-562 leukemia
# run-description: NCI tumour cell line growth inhibition, 48 h
Would you kindly list TGI for each of these compounds?

**Q:** Return TGI for the following compound: CC1=NN(C(=O)Nc2ccccc2)C(=O)C2CCC(=O)N12 (stereo not drawn)
**A:** > 100 µM

**Q:** Return TGI for the following compound: Cc1cn(C(C)OCCN2C(=O)c3ccccc3C2=O)c(=O)[nH]c1=O (stereo not drawn)
**A:** > 100 µM

**Q:** Return TGI for the following compound: COc1cc(C2=C(c3ccccc3)COC2=O)cc(OC)c1OC
**A:** > 100 µM

---

Would you kindly list TGI for each of these compounds?
# Test system: CAKI-1 renal
# run-description: NCI tumour cell line growth inhibition, 48 h

**Q:** For CAKI-1 renal, give TGI of the listed compound: CCCCN=C(NC#N)NCCCC
**A:** > 100 µM

**Q:** For CAKI-1 renal, give TGI of the listed compound: Brc1ccc2c(-c3csc(-c4c[nH]c5ccc(Br)cc45)n3)c[nH]c2c1
**A:** 9.81 µM

**Q:** For CAKI-1 renal, give TGI of the listed compound: COC(=O)[C@]12CC[C@@H](C)[C@H](C)[C@@H]1C1=CC[C@@H]3[C@@]4(C)C/C(=N\O)[C@H](O)[C@@]5(C)COC(=C45)C[C@@]3(C)[C@]1(C)CC2
**A:** 24.7 µM

**Q:** For CAKI-1 renal, give TGI of the listed compound: COC(=O)c1ccc(C=Nc2ccc(S(N)(=O)=O)cc2)cc1
**A:** > 100 µM

**Q:** For CAKI-1 renal, give TGI of the listed compound: COC(=O)C1Cc2c(n(Cc3ccccc3)c3ccccc23)C(CCC(=O)O)N1C(C)C (centres undefined)
**A:** > 100 µM

**Q:** For CAKI-1 renal, give TGI of the listed compound: CC1S/C(=N/c2nnc(-c3ccccc3)o2)NC1=O (centres undefined)
**A:** > 100 µM

**Q:** For CAKI-1 renal, give TGI of the listed compound: C=C1C(=O)O[C@H]2[C@H]1CC/C(Cn1cc(-c3ccc(OC)cc3)nn1)=C\CC[C@@]1(C)O[C@@H]21
**A:** 3.63 µM

**Q:** For CAKI-1 renal, give TGI of the listed compound: OCc1c[nH]c2ccccc12
**A:** 52.8 µM

**Q:** For CAKI-1 renal, give TGI of the listed compound: CCOc1cc(-c2nc3ccccn3c2/N=C/c2cc(Br)ccc2O)ccc1O
**A:** > 100 µM

**Q:** For CAKI-1 renal, give TGI of the listed compound: COC(=O)/C=C/c1cc(OC)c(OC)c(OC)c1
**A:** > 100 µM

**Q:** For CAKI-1 renal, give TGI of the listed compound: O=C1NC2OC(CO)C(O)C(O1)C2O (centres undefined)
**A:** > 100 µM

**Q:** For CAKI-1 renal, give TGI of the listed compound: COc1ccc2c(c1)CC1=C(O2)c2ccc(OC)cc2OC1
**A:** 37.1 µM

**Q:** For CAKI-1 renal, give TGI of the listed compound: CN(C)S(=O)(=O)Nc1nnc(S(N)(=O)=O)s1
**A:** > 100 µM

**Q:** For CAKI-1 renal, give TGI of the listed compound: CSc1nc2c(c(=O)n1C)N=C(c1ccccc1)[C@H](C(CC(=O)c1ccccc1)c1ccccc1)C(c1ccccc1)N2 (some centres undefined)
**A:** > 100 µM

**Q:** For CAKI-1 renal, give TGI of the listed compound: CC(C)(C)C1C=C(Sc2ccccc2)C(=O)O1 (centres undefined)
**A:** > 100 µM

**Q:** For CAKI-1 renal, give TGI of the listed compound: O=C(/C=C/c1c(O)ccc2ccccc12)c1cccc(O)c1
**A:** > 100 µM

**Q:** For CAKI-1 renal, give TGI of the listed compound: COc1ccc2cc(NC(=O)N/N=C\c3ccc(Cl)cc3)ccc2c1
**A:** > 100 µM

**Q:** For CAKI-1 renal, give TGI of the listed compound: OC1(c2ccc(Cl)cc2)c2ccc3ccccc3c2C2=N[C@H]3CCCC[C@@H]3N21 (some centres undefined)
**A:** 67.1 µM

**Q:** For CAKI-1 renal, give TGI of the listed compound: COc1ccc(C2=CC3CCC2C3)cc1 (centres undefined)
**A:** > 100 µM

**Q:** For CAKI-1 renal, give TGI of the listed compound: CC1(C(=O)O)CCCC1C(=O)O (centres undefined)
**A:** > 100 µM

**Q:** For CAKI-1 renal, give TGI of the listed compound: CC(C)C(=O)NC(=S)Nc1ccc([N+](=O)[O-])cc1C#N
**A:** > 100 µM

**Q:** For CAKI-1 renal, give TGI of the listed compound: CCOC(=O)C(CC#Cc1ccc(C#CCC(NC(C)=O)C(=O)OCC)cc1)NC(C)=O (centres undefined)
**A:** > 100 µM

**Q:** For CAKI-1 renal, give TGI of the listed compound: O=C(O)CNS(=O)(=O)c1ccc(NCc2ccccc2)cc1
**A:** > 100 µM

**Q:** For CAKI-1 renal, give TGI of the listed compound: CCc1ccc(/C=C\c2cc(OC)c(OC)c(OC)c2)cc1
**A:** > 100 µM

**Q:** For CAKI-1 renal, give TGI of the listed compound: COc1cc(CN2CCCCC2)cc2cc(C(=O)O)c(=O)oc12
**A:** > 100 µM

**Q:** For CAKI-1 renal, give TGI of the listed compound: O=C1c2cc(Cl)ccc2S(=O)(=O)c2c(NCCCNCCO)nc3ccccc3c21
**A:** 2.4 µM

**Q:** For CAKI-1 renal, give TGI of the listed compound: CC1(C)OCC2OC3([C@H]4OC(C)(C)O[C@@H]4CO)OC(C)(C)OC3C2O1 (some centres undefined)
**A:** > 100 µM

**Q:** For CAKI-1 renal, give TGI of the listed compound: COC1/C=C\C=C(/C)C(=O)NC2=CC(=O)C(=O)C(=C2O)CC(C)CC(OC)C(O)C(C)/C=C(\C)C1OC(N)=O (centres undefined)
**A:** > 42 µM

**Q:** For CAKI-1 renal, give TGI of the listed compound: c1ccc2c3c(c(N4CCOCC4)nc2c1)CCCC3
**A:** > 100 µM

**Q:** For CAKI-1 renal, give TGI of the listed compound: Clc1ccc(OCc2nnc(CCCCCCCCc3nnc(COc4ccc(Cl)cc4)n3Nc3ccccc3)n2Nc2ccccc2)cc1
**A:** 27.2 µM

**Q:** For CAKI-1 renal, give TGI of the listed compound: CC1(C)C=C(S(=O)(=O)c2ccccc2)Oc2ccccc2O1
**A:** > 100 µM

**Q:** For CAKI-1 renal, give TGI of the listed compound: COc1ccc(-c2c(C#N)c(N)nc3c2CCS(=O)(=O)c2ccccc2-3)cc1
**A:** > 100 µM

**Q:** For CAKI-1 renal, give TGI of the listed compound: CC(=O)OC[C@]1(C)C=C2C(=O)[C@](C)(O)C3(CC3)C(C)=C2[C@H]1O
**A:** 2.58 µM

**Q:** For CAKI-1 renal, give TGI of the listed compound: Cn1c2ccccc2c2c(-c3ccccc3)[n+]3ccncc3nc21
**A:** > 100 µM

**Q:** For CAKI-1 renal, give TGI of the listed compound: NC(=O)c1cc2ccccc2o/c1=N/O
**A:** 70.3 µM

**Q:** For CAKI-1 renal, give TGI of the listed compound: N#Cc1ccc(O)c(C2=NCC(c3cccc(Oc4ccccc4)c3)O2)c1 (centres undefined)
**A:** 37.9 µM

**Q:** For CAKI-1 renal, give TGI of the listed compound: CC(=O)OCCN1c2ccccc2Sc2cnccc21
**A:** > 10 µM

**Q:** For CAKI-1 renal, give TGI of the listed compound: Cc1cc2ncc3c(=O)n(NS(=O)(=O)c4ccc(N)cc4)ccc3n2n1
**A:** > 100 µM

**Q:** For CAKI-1 renal, give TGI of the listed compound: COc1ccc(-c2cc(=O)c3c(OC)c(OC)c(OC)cc3o2)cc1
**A:** > 100 µM

---

Would you kindly list GI50 for each of these compounds?
# Test system: IGROV1 ovarian
# run-description: NCI tumour cell line growth inhibition, 48 h

**Q:** Return GI50 for the following compound: Cn1c2ccccc2c2c(-c3ccccc3)[n+]3ccncc3nc21
**A:** 70.8 µM

**Q:** Return GI50 for the following compound: Oc1ccc(CN2CCC(N3CCCCC3)CC2)c2cccnc12
**A:** 23.4 µM

**Q:** Return GI50 for the following compound: N#Cc1ccc(O)c(C2=NCC(c3cccc(Oc4ccccc4)c3)O2)c1 (centres undefined)
**A:** 0.787 µM

**Q:** Return GI50 for the following compound: Cc1ccc(NC(=O)c2cccc(N(C)C)c2)cc1NC(=O)c1ccc(O)cc1
**A:** > 85.8 µM

**Q:** Return GI50 for the following compound: COc1ccc(-c2cnnc3c(-c4cccc(C(F)(F)F)c4)cnn23)cc1
**A:** 1.97 µM

**Q:** Return GI50 for the following compound: COC(=O)[C@]12CC[C@@H](C)[C@H](C)[C@@H]1C1=CC[C@@H]3[C@@]4(C)C/C(=N\O)[C@H](O)[C@@]5(C)COC(=C45)C[C@@]3(C)[C@]1(C)CC2
**A:** 8.87 µM

**Q:** Return GI50 for the following compound: Oc1c(CN2CCC(N3CCCCC3)CC2)cc(Cc2cc(CN3CCC(N4CCCCC4)CC3)c(O)c3ncccc23)c2cccnc12
**A:** 1.16 µM

**Q:** Return GI50 for the following compound: O=c1/c(=C/c2ccco2)sc2nc3ccccc3n12
**A:** > 100 µM

**Q:** Return GI50 for the following compound: CCC[CH2][Sn]([CH2]CCC)([O]C(=O)c1cccnc1SC)[O]C(=O)c1cccnc1SC
**A:** 1.38 µM
